test: Fraction absorbed in CD1 mouse at 5 mg/kg, po administered as bolus dose; type: ADME, organism-based; details: in vivo, read-out: Fabs
testReadout: Fa (%)

| chemSmiles | testReadout | measured |
| --- | --- | --- |
| COc1nn(C)cc1C(=O)N[S@@]1(=O)=NC(=O)c2ccc3c(c2)N(C[C@@H]2CCO[C@H]2[C@@H](OC)/C(F)=C/C[C@H](C)C1)C[C@@]1(CCCc2cc(Cl)ccc21)CO3 | Fa | 99 |

----------
experiment: Lipophilicity, CHI logD of compound at pH 7.4 by UPLC-TOF analysis; format: physicochemical; conditions: buffer
The reader will find reported chromatographic logD values listed item by item below.
testReadout: chromatographic logD

| chemSmiles | measured |
| --- | --- |
| C/C1=C\C[C@H](C)[C@@H](C)S(=O)(=O)NC(=O)c2ccc3c(c2)N(C[C@@H]2CCO[C@H]2[C@H]1CO)C[C@@]1(CCCc2cc(Cl)ccc21)CO3 | 2.8 |
| C[C@@H]1[C@@H](C)C/C=C(\F)[C@@](O)(CC(=O)N(C)C)[C@@H]2OCC[C@H]2CN2C[C@@]3(CCCc4cc(Cl)ccc43)COc3ccc(cc32)C(=O)NS1(=O)=O | 3.6 |
| Cc1c(-c2c(-c3ccc(F)o3)sc3ncnc(O[C@H](Cc4ccccc4OCc4ccnn4CC(F)(F)F)C(=O)O)c23)ccc(OCCN2CCN(C)CC2)c1Cl | 2.5 |
| C[C@@H]1[C@@H](C)C/C=C(\F)[C@@](O)(CC#N)[C@@H]2OCC[C@H]2CN2C[C@@]3(CCCc4cc(Cl)ccc43)COc3ccc(cc32)C(=O)NS1(=O)=O | 3.1 |
